- system-under-test: succinate cytochrome c reductase (SDH+CIII) (Botrytis cinerea, UniProt A0A384J5E4+D2IH01+D2IH03)
- Sequence (A0A384J5E4 30-300): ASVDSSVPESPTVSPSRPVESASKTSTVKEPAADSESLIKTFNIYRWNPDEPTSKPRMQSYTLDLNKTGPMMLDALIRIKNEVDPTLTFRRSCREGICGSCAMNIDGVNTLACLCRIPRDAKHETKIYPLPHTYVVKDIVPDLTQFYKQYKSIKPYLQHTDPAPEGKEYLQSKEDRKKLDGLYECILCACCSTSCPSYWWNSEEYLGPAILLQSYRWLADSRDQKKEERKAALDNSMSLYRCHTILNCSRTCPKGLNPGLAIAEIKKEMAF
- Sequence (D2IH03 46-189): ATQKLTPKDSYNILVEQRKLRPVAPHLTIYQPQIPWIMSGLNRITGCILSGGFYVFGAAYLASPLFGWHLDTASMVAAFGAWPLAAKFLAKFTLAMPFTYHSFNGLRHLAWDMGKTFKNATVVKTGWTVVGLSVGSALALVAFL
- Sequence (D2IH01 64-192): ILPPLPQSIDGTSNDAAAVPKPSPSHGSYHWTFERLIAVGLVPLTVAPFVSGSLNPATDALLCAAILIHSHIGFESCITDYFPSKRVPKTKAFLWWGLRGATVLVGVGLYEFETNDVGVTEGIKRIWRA
- test-description: SCCR activity, Botrytis cinerea mitochondria
- Assay type: biochemical
- measurement-setup: Botrytis cinerea mitochondria; read-out: IC50 SCCR
property-label: IC50

Here are 3 compounds together with their reported answers.
- Cn1cc(C(=O)Nc2ccccc2-c2cc(F)c(F)c(F)c2)c(C(F)F)n1 [Fluxapyroxad, fluxapyroxad]: 95 nM
- Cn1cc(C(=O)Nc2ccc(F)cc2-c2ccc(Cl)c(Cl)c2)c(C(F)F)n1 [Bixafen, bixafen]: 70 nM
- Cc1nn(C)c(F)c1C(=O)Nc1ccccc1C(C)CC(C)C (stereo not shown) [Penflufen, penflufen]: 130 nM

Read the next record carefully.
Can you look up the measured IC50 of CC(C)C1C2CCC1c1c(NC(=O)c3cn(C)nc3C(F)F)cccc12 (stereo not shown) [Isopyrazam, isopyrazam] for me?
23 nM

----------
Each record here notes measured pIC50.
- system-under-test: glycerol-3-phosphate cytochrome c reductase (G3PDH+CIII) (Botrytis cinerea)
- Sequence (Q18ND9 1-391): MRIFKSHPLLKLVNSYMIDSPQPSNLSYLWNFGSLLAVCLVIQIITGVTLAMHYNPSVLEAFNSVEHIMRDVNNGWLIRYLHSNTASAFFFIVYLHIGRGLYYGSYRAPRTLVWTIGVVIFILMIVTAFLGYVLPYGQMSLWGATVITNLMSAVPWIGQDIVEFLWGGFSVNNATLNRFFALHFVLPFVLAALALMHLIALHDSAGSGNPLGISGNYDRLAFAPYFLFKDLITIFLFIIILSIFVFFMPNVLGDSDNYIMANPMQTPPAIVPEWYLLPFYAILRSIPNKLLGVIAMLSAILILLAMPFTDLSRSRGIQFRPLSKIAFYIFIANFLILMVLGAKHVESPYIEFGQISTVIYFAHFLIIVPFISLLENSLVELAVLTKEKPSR
- test-description: GCCR activity, Botrytis cinerea mitochondria
# reply with the number alone; pIC50 is -log10 of concentration in mol/L

Can you look up the measured pIC50 of Cc1nn(C)c(F)c1C(=O)Nc1ccccc1C(C)CC(C)C (stereo not shown) for me?
4.10

Can you look up the measured pIC50 of Cn1cc(C(=O)Nc2ccccc2-c2cc(F)c(F)c(F)c2)c(C(F)F)n1 for me?
4.22

Can you look up the measured pIC50 of CC(C)C1C2CCC1c1c(NC(=O)c3cn(C)nc3C(F)F)cccc12 (stereo not shown) for me?
4.55

Can you look up the measured pIC50 of Cn1cc(C(=O)Nc2ccc(F)cc2-c2ccc(Cl)c(Cl)c2)c(C(F)F)n1 for me?
4.65

----------
- system-under-test: succinate cytochrome c reductase (SDH+CIII) (Homo sapiens, UniProt O14521+P21912+Q99643)
- Sequence (P21912 29-280): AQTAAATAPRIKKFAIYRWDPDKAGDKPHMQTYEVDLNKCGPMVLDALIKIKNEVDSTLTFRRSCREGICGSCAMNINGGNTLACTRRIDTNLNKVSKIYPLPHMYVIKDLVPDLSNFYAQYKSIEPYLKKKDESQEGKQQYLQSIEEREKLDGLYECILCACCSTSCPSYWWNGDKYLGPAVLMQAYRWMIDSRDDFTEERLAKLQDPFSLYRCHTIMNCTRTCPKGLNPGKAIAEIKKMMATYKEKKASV
- Sequence (Q99643 30-169): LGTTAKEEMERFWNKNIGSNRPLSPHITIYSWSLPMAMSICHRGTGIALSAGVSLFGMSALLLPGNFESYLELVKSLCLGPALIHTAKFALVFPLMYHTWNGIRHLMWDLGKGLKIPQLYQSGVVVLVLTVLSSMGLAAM
- Sequence (O14521 57-159): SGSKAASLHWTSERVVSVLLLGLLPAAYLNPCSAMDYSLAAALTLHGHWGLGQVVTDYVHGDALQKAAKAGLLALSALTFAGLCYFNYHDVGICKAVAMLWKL
- Sequence (P31040 43-664 partner): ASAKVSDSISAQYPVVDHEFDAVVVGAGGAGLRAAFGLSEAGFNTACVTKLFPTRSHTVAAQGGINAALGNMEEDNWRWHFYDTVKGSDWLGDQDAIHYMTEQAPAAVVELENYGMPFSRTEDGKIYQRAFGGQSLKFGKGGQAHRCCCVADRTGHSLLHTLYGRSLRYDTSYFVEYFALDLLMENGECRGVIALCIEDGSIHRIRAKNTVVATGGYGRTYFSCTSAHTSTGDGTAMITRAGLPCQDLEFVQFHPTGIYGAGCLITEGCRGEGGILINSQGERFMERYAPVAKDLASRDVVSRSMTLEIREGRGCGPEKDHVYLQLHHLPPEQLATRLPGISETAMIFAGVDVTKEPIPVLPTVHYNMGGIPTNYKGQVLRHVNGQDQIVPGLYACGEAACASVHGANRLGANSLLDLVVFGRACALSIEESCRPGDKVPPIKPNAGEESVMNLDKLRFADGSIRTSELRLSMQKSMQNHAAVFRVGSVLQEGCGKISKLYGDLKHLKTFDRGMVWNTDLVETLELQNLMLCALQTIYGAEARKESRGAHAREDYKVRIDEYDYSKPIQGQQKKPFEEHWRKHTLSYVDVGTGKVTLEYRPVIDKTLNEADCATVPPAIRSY
- test-description: Malonate-sensitive succinate cytochrome c reductase (SCCR) activity, freeze-thawed HEK cells
- Format: biochemical
- Design: the pellets were permeabilized by two freeze-thaw cycles before enzyme assays; endogenous in cells; host or cells: HEK293, freeze-thawed cell pellets
- measurement-setup: no exogenous quinone, n ≥ 3, read-out: IC50 SCCR
property-label: pIC50
# reply with the number alone; pIC50 is -log10 of concentration in mol/L

Here are 4 compounds together with their reported answers.
• Cn1cc(C(=O)Nc2ccccc2-c2cc(F)c(F)c(F)c2)c(C(F)F)n1 [Fluxapyroxad, fluxapyroxad] = 5.68
• Cn1cc(C(=O)Nc2ccc(F)cc2-c2ccc(Cl)c(Cl)c2)c(C(F)F)n1 [Bixafen, bixafen] = 6.47
• CC(C)C1C2CCC1c1c(NC(=O)c3cn(C)nc3C(F)F)cccc12 (centres unmarked) [Isopyrazam, isopyrazam] = 6.20
• CC(C)Oc1cccc(NC(=O)c2ccccc2C(F)(F)F)c1 [Flutolanil, flutolanil] = 4.73

Read the next record carefully.
Can you look up the measured pIC50 of Cc1nn(C)c(F)c1C(=O)Nc1ccccc1C(C)CC(C)C (centres unmarked) [Penflufen, penflufen] for me?
5.89

----------
- system-under-test: glycerol-3-phosphate cytochrome c reductase (G3PDH+CIII) (Homo sapiens, UniProt P00156)
- Construct: the pellets were permeabilized by two freeze-thaw cycles before enzyme assays; endogenous in cells; host or cells: HEK293, freeze-thawed cell pellets
- test-description: Glycerol-3-phosphate cytochrome c reductase (GCCR) activity, freeze-thawed HEK cells
- Format: biochemical
- measurement-setup: Homo sapiens, freeze-thawed HEK cells; read-out: IC50 GCCR
pIC50: −log10 of the molar value.
property-label: pIC50

Here are 2 compounds together with their reported answers.
* Cc1nn(C)c(F)c1C(=O)Nc1ccccc1C(C)CC(C)C (stereo not drawn) [Penflufen, penflufen] | < 3.30
* Cn1cc(C(=O)Nc2ccccc2-c2cc(F)c(F)c(F)c2)c(C(F)F)n1 [Fluxapyroxad, fluxapyroxad] | < 3.30

Read the next record carefully.
Can you look up the measured pIC50 of CC(C)Oc1cccc(NC(=O)c2ccccc2C(F)(F)F)c1 [Flutolanil, flutolanil] for me?
< 3.30

----------
- system-under-test: quinol cytochrome c reductase (CIII) (Homo sapiens)
- Construct: the pellets were permeabilized by two freeze-thaw cycles before enzyme assays; endogenous in cells; host or cells: HEK293, freeze-thawed cell pellets
- test-description: Antimycin-sensitive quinol cytochrome c reductase (QCCR) activity, freeze-thawed HEK cells
- Type: biochemical
- measurement-setup: Homo sapiens, freeze-thawed HEK cells; CIII values only indicative (reduced quinone added); read-out: IC50 QCCR
property-label: IC50

Here are 2 compounds together with their reported answers.
- CC(C)Oc1cccc(NC(=O)c2ccccc2C(F)(F)F)c1: > 500 µM
- Cc1nn(C)c(F)c1C(=O)Nc1ccccc1C(C)CC(C)C (stereo not drawn): > 500 µM

Read the next record carefully.
Hi! What's the reported IC50 for Cn1cc(C(=O)Nc2ccccc2-c2cc(F)c(F)c(F)c2)c(C(F)F)n1 on quinol cytochrome c reductase (CIII) (Homo sapiens)?
> 500 µM
